Tested on: B6C3F1 mice, intracerebral ependymoblastoma, median survival T/C
protocolDescription: NCI In Vivo Anticancer Drug Screen. Data for tumor model Ependymoblastoma (intracerebral) in B6C3F1 mice
conditions: endpoint: median survival time; dose: 16.0 mg/kg/injection; schedule: Q01DX005 (ip); vehicle: saline; higher = longer survival
Inconclusive results and toxic doses are left out.
Here the recorded T/C is given for each entry.
quantity: T/C

- molecule: "COC1C(O)C(C)OC(OC2C(Oc3cccc4c(O)c5c(=O)oc6ccc(C)c7c(=O)oc(c34)c5c67)OC(C)C(O)C2O)C1O (configuration not stated)"
  quantity: "T/C"
  reportedResult: "93 % of control"
- molecule: "O=C(O)CC(NC(=O)CP(=O)(O)O)C(=O)O (configuration not stated)"
  quantity: "T/C"
  reportedResult: "107 % of control"
- molecule: "COc1ccc2c(c1O)-c1cccc3c1[C@@H](C2)N(CCCl)CC3"
  quantity: "T/C"
  reportedResult: "88 % of control"
- molecule: "CN=NNc1nc[nH]c1C(N)=O"
  quantity: "T/C"
  reportedResult: "106 % of control"
- molecule: "CN(Cc1cnc2nc(N)nc(N)c2n1)c1c(Cl)cc(C(=O)NC(CCC(=O)O)C(=O)O)cc1Cl (configuration not stated)"
  quantity: "T/C"
  reportedResult: "100 % of control"
- molecule: "O=c1[nH]cc(F)c(=O)[nH]1"
  quantity: "T/C"
  reportedResult: "105 % of control"
- molecule: "COc1ccc(C[C@H](N)C(=O)NC2C(CO)OC(n3cnc4c(N(C)C)ncnc43)C2O)cc1 (some centres not stated)"
  quantity: "T/C"
  reportedResult: "101 % of control"
- molecule: "O=c1[nH]c(=O)n([C@H]2CCCO2)cc1F"
  quantity: "T/C"
  reportedResult: "91 % of control"
- molecule: "CCC1=C(c2ccc(OC)cc2)CCC(C(=O)O)C1C (configuration not stated)"
  quantity: "T/C"
  reportedResult: "102 % of control"
- molecule: "Nc1ccn(C2OC(COP(=O)(O)O)C(O)C2O)c(=O)n1 (configuration not stated)"
  quantity: "T/C"
  reportedResult: "96 % of control"
- molecule: "COS(C)(=O)=O"
  quantity: "T/C"
  reportedResult: "118 % of control"
- molecule: "F"
  quantity: "T/C"
  reportedResult: "112 % of control"
